Measured Kd of individual entries
Target desc: T1, CD123 (protein in solution in the Octet affinity assay) (human, UniProt P26951 19-305, limits assumed)
T1 construct: also called IL-3Rα; Interleukine-3 Receptor alpha
T1 sequence (looked up): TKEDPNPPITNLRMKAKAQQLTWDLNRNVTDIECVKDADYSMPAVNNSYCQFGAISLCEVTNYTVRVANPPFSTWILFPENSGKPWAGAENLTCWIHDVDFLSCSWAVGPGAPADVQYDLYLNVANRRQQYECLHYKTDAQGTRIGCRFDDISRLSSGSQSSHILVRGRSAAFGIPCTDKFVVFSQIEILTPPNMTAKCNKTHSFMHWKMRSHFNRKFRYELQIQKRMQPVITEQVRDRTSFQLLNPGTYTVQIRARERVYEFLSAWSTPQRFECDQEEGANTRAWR
Assay name: BLI (Octet), antibody on streptavidin biosensor, CD123 in solution

# Binder, Value units, Qualifier sign, Kd
measured = [
    ("15E11B7 (antibody, V domains shown, Mouse hybridoma monoclonal antibody; also called AB6) VH: EVQLEQSGPELVKPGDSVKISCKASGYSFTGYFMNWVKQSHGKSLEWIGRINPYNDYTFNNQKFKDKATLTVDKSSSTAHMELLSLTSEDSAVYYCGGGVRGAWFAFWGQGTLVTVSE VL: DIVLTQSTTSLAVSLGQRATISCRASKSVSTSGYNYMHWYQQKPGQPPKLLIYLASNLESGVPARFSGSGSGTDFTLNIHPVEEEDAATYYCQHSADLPYTFGGGTKLEIKR", "nM", "=", 2.48),
    ("17F7B2 (antibody, V domains shown, Mouse hybridoma monoclonal antibody; also called AB2) VH: EVQLQQSGTVLARPGASVKMSCKASGYSFTSYWMHWVKQRPGQGLEWIGAFYPGKSDTTYNQKFKGKAKLTAVTSASTAYMELSSLTNEDSAVYYCTKGYRYDWFAYWGQGTLVTVSA VL: DVVMTQTPLSLPVSLGDQASISCRSSQSLVHSNGITYLHWYLQKPGQSPKLLIYKVSNRFSGVPDRFSGSGSGTDFTLKISRVEAEDLGVYFCSQNTHVPFTFGSGTKLEIKR", "nM", "=", 2.55),
    ("18B4D5 (antibody, V domains shown, Mouse hybridoma monoclonal antibody; The tie uses 'at least 85% identity' wording; also called AB1; antiCD123 B4D5) VH: EVKLQESGPGLVKPSQSLSLTCTVTGYSITSDYTWNWIRQFPGNKLEWMGYISFSGSTSYNPSLKSRLSITRDTSKNQFFLQLNSVTTEDTATYYCARGLDYWGQGTTLTVSS VL: DIVMTQSPAIMSASLGERVTMTCTASSSISSSYLYWYQQKPGSSPKLWIYSTSNLASGVPARFSGSGSGTSYSLTISSMEAEDAATYYCHQLHRSPWTFGGGTKLEIKR", "nM", "<", 0.001),
    ("11B6E6 (antibody, V domains shown, Mouse hybridoma monoclonal antibody; also called AB3) VH: QVKLEESGPGLVAPSQSLSITCTVSGFSLTSYDISWIRQPPGKGLEWLGVIWTGGGTNYNSAFMSRLSISKDNSKSQVFLKMFSLQTDDTAIYYCVRAHGYYFAMDYWGQGTSVTVSS VL: DIVLTQSPSSLAVSAGEKVTMRCKSSQSLLNSSTRKNYLAWYQQKPGQSPKLLIYWASTRESGVPDRFTGSGSGTDFTLTISSVQAEDLAVYYCKQSYNLFTFGSGTKLEIKR", "nM", "=", 9.37),
    ("11A12C6 (antibody, V domains shown, Mouse hybridoma monoclonal antibody; also called AB5) VH: QVQLKESGPGLVAPSQSLSITCTVSGFSLTSYDINWIRQTPGKGLEWLGVIWTGGGTNYNSAFMSRLSISRDNSKSQVFLKMNSLQTDDTAIYYCVRGDGYYWYFDVWGAGTTVTVSS VL: IVMTQSPSSLAVSAGEKVTMSCKSSQSLFSSSARKNYLAWYQQRPGQSPKLLIYWASTRESGVPDRFTGSGSGTDFTLTIGSVQAEDLAVYYCKQSYSLFTFGSGTKLEIKR", "nM", "<", 0.001),
    ("14G12D7 (antibody, V domains shown, Mouse hybridoma monoclonal antibody; also called AB4) VH: EVQLQESGPGLVKPSQSLSLTCTVTGYSVTSDYAWNWIRQFPGNKLEWMGYIIYSGTTSYNPSLKSRISITRDTSKNQFFLQLNSVTTEDTATYYCTRGVDYWGQGTTLTVSS VL: DIVLTQSPAIMSASPGEKVTMTCRASSSVRSSYLHWYQQKSGASPKLWIYSTSNLASGVPARFSGSGSGTSYSLTISSVEAEDAATYYCLQFSGYPFTFGGGTKLEIKR", "nM", "=", 8.84),
]
